biological target: T1, HLA-B*07:02 (human); experiment: UV-exchange b2m ELISA; exchange-yield grade
T1 construct: also called peptide-receptive MHC molecules
measurement.kind: peptide exchange yield

binder	recorded.measurement
SPGATSRGTL	50 to 75%
SPALHIGSV	50 to 75%
SPHPVTALLTL	50 to 75%
NPIGDTGVKF	50 to 75%
HPKTESATPAAY	20 to 50%
SPAMTTPSL	50 to 75%

// input: 8 binders below; output: peptide exchange yield for each
1. SPASRSISL
2. APSTPRITTF
3. MPNLPSTTSL
4. YPLRGSSI
5. VPDSGATATAY
6. SPNEFYFTV
7. RVRSTISSL
8. SPLPVTSLL

["50 to 75%", "50 to 75%", "50 to 75%", "20 to 50%", "20 to 50%", "50 to 75%", "50 to 75%", "50 to 75%"]

Report peptide exchange yield for each item below.
1. IPTYGRTF
2. TVREASGLL

["50 to 75%", "50 to 75%"]
